system: translation in rabbit reticulocyte lysate; assay: In vitro translation in rabbit reticulocyte lysate (RRL); format: biochemical; settings: standard amino acid mix
assay-endpoint: translation of luciferase RNA in RRL

>>> df
                                   molecule       result
0  CC(=O)N1CCC[C@H](O)[C@H]1CC(=O)Cn1cnc2cc(Br)c(Cl)cc2c1=O [MAZ1442]  no activity
1  CC(C)(C)OC(=O)N1CCC[C@H](O)[C@H]1CC(=O)Cn1cnc2cc(Br)c(Cl)cc2c1=O [MAZ1310]  no activity
